- target: UniProtKB P30969
- Sequence (P30969 whole entry): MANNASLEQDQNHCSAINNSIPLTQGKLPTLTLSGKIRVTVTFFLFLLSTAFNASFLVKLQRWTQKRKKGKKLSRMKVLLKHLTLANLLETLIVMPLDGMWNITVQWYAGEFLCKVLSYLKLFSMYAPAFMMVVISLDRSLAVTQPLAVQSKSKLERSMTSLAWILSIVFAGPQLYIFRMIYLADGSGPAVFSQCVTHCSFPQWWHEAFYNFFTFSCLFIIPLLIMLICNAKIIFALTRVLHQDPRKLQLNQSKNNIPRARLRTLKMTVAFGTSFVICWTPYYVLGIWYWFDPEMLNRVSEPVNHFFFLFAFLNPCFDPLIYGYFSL
- assay_notes: Radioligand binding, 125I-GnRH-A, rat pituitary membranes
- Set-up: membranes were prepared from rat pituitary; from tissue; host or cells: rat pituitary
- run_conditions: read-out: rGnRH IC50
pIC50: −log10 of the molar value.
Classification by pIC50 | ranges: one = under 6, two = from 6 up to 7, three = 7 and over

{"columns": ["molecule", "target", "class"],
 "data": [
  ["Cc1cc2c(cc1Cc1ccc(C(=O)NCc3cccc(CNc4ccnc(NC[C@@H]5CCCO5)n4)c3)o1)C(C)(C)CCC2(C)C [Compound 176]", "UniProtKB P30969", "three"],
  ["COc1cc(OC)c(NC(=O)c2ccc(Cc3cc(C(C)(C)C)ccc3OC)o2)c(OC)c1 [Compound 203]", "UniProtKB P30969", "three"]
]}

Query string: Could you place Cc1cc2c(cc1Cc1ccc(C(=O)Nc3ccc(NC(=O)OC(C)(C)C)cc3)o1)C(C)(C)CCC2(C)C [Compound 101] in its proper category? Many thanks.
Result string: one

Query string: Could you place Cc1cc2c(cc1Cc1ccc(C(=O)NC[C@H]3CC[C@H](CNc4ccnc(NC[C@@H]5CCCO5)n4)CC3)o1)C(C)(C)CCC2(C)C [Compound 174] in its proper category? Many thanks.
Result string: two
